# maps each entry to its IC50
Target: Na^+,K+ -ATPase (Canis lupus familiaris)
Construct: Na^+,K+ -ATPase receptor purified according to Jorghensen; from tissue
Test: inhibition of the activity of the purified Na^+,K+ -ATPase measured as % of hydrolysis of ^32 P-ATP
Type: biochemical
Conditions: purified Na^+,K+ -ATPase, hydrolysis of ^32 P-ATP; read-out: Inhibitory Activity log IC50 (converted)
Endpoint Label: IC50 (µM)

INSERT INTO results (item_smiles, meas_value) VALUES
  ('C[C@]12CC[C@H](OCCN3CCCC3)C[C@H]1CC[C@@H]1[C@@H]2CC[C@]2(C)[C@@H](/C=N/NC3=NCCN3)CC[C@]12O', 0.398),
  ('C[C@]12CC[C@H](O)C[C@H]1CC[C@@H]1[C@@H]2CC[C@]2(C)[C@@](O)(/C=N/NC(=N)N)CC[C@]12O', 39.8),
  ('C[C@]12CC[C@H](OCCN3CCCC3)C[C@H]1CC[C@@H]1[C@@H]2CC[C@]2(C)[C@@H](/C=N/NC(N)=O)CC[C@]12O', 39.8),
  ('C[C@]12CC[C@H](OCCN3CCCC3)C[C@H]1CC[C@@H]1[C@@H]2CC[C@]2(C)[C@@H](/C=N/NC(=N)N)CC[C@]12O', 0.501),
  ('C[C@]12CC[C@H](O)C[C@H]1CC[C@@H]1[C@@H]2CC[C@]2(C)/C(=N/NC3=NCCN3)CC[C@]12O', 39.8),
  ('C[C@]12CC[C@H](OCCCN)C[C@H]1CC[C@@H]1[C@@H]2CC[C@]2(C)[C@@H](/C=N/NC(N)=O)CC[C@]12O', 39.8),
  ('C[C@]12CC[C@H](OCCCN)C[C@H]1CC[C@@H]1[C@@H]2CC[C@]2(C)[C@@H](/C=N/NC(=N)N)CC[C@]12O', 0.794);

---

System: spontaneous hypertensive rats (MHS)
Experiment: effect of 5 week-treatment on the development of hypertension in rats (SBP and HR, tail cuff method)
Type: in vivo, rat
Conditions: 20 mg/Kg/os daily in Methocel 0.5% w/v, 5 weeks, 7 rats, controls 380 +/- 9.0
Endpoint Label: HR

INSERT INTO results (molecule, endpoint_label, meas_value) VALUES
  ('C[C@]12CC[C@H](OCCN3CCCC3)C[C@H]1CC[C@@H]1[C@@H]2CC[C@]2(C)[C@@H](/C=N/NC(=N)N)CC[C@]12O [Comp. I-an]', 'HR', '384 +/- 7.9 beats/min.'),
  ('C[C@]12CC[C@H](O)C[C@H]1CC[C@@H]1[C@@H]2CC[C@]2(C)[C@@H](/C=N/NC3=NCCN3)CC[C@]12O [Comp. I-aa]', 'HR', '370 +/- 11.2 beats/min.'),
  ('C[C@]12CC[C@H](OCCN3CCCC3)C[C@H]1CC[C@@H]1[C@@H]2CC[C@]2(C)[C@@H](/C=N/NC3=NCCN3)CC[C@]12O [Comp. I-aw]', 'HR', '388 +/- 9.0 beats/min.'),
  ('C[C@]12CC[C@H](OCCCN)C[C@H]1CC[C@@H]1[C@@H]2CC[C@]2(C)[C@@H](/C=N/NC(=N)N)CC[C@]12O [Comp. I-al]', 'HR', '380 +/- 10.0 beats/min.'),
  ('CN(C)CCNC(=N)N/N=C/[C@H]1CC[C@]2(O)[C@@H]3CC[C@@H]4C[C@@H](O)CC[C@]4(C)[C@H]3CC[C@]12C [Comp. I-ag]', 'HR', '390 +/- 5.9 beats/min.');
